# Tested on: MCF7
# Assay Details: NCI tumour cell line growth inhibition, 48 h
The source made the active and inactive calls. Cut-off read from the data, not from the text of the source: active = GI50 up to about 1.1 µM and inactive = higher.
Hi! Could you answer with just one of these? yes (active), no (inactive)

// below: answered molecules
>>> label("COc1ccc(-c2coc3cc(O)ccc3c2=O)cc1")
"no"
>>> label("COc1ccc(/C=C/C(=O)c2nc3ccccc3[nH]2)cc1")
"no"
>>> label("CCN(CC)CC1CCCCN1CC(=O)N1c2ccccc2NC(=O)c2ccccc21 (stereo not drawn)")
"no"
>>> label("Cc1cn([C@@H]2O[C@H](CO)[C@@H](O)[C@@H]2O)c(=O)[nH]c1=O")
"no"
>>> label("COC(=O)C(CCCCN)NC(=O)C(CCCCN)NC(=O)C(CCCCN)NC(C)=O.Cc1ccc(C(=O)Nc2ccc(S(=O)(=O)O)c3cc(S(=O)(=O)O)cc(S(=O)(=O)O)c23)cc1NC(=O)c1cccc(NC(=O)Nc2cccc(C(=O)Nc3cc(C(=O)Nc4ccc(S(=O)(=O)O)c5cc(S(=O)(=O)O)cc(S(=O)(=O)O)c45)ccc3C)c2)c1")
"no"
>>> label("COc1cc2cc(C(=O)N3CC(CCl)c4ccc(NO)cc43)[nH]c2c(OC)c1OC (stereo not drawn)")
"yes"
>>> label("O=C1N/C(=N/N=C\\C(O)C(O)C(O)CO)N/C1=C/c1ccc(Cl)cc1 (stereo not drawn)")
"no"

Request: Recorded test outcome, item S=C1CCSc2c(ccc3ccccc23)N1
Result: no
